These measurements were taken from ChEMBL document CHEMBL1287733.

Organism: Bos taurus
Test: Inhibition of bovine trypsin
Calls of active or inactive are those of the source. The rule behind the calls is not given here. Starred links: 1 amine or outer side, 2 acyl side, 3 side chain; linkers in the order of their positions; H or OH if unused. Non-standard residues stand in square brackets, D forms with d. Residues, ends and D or L forms follow the SMILES beside them. N(2-mercaptoethyl)Gly = O=C(CN(CCS[*:3])[*:1])[*:2]; Nlys = NCCCCNCC(=O)O
Observable: Ka

CC[C@H](C)[C@@H]1NC(=O)[C@@H]2CCCN2C(=O)[C@@H]2CCCN2C(=O)[C@H]([C@@H](C)CC)NC(=O)[C@H](CO)NC(=O)[C@H](CCCCN)NC(=O)[C@H]([C@@H](C)O)NC(=O)CN(CCS)C(=O)[C@H](CCCNC(=N)N)NC(=O)CNC(=O)[C@H](CC(=O)O)NC(=O)[C@@H]2CCCN2C(=O)[C@H](Cc2ccccc2)NC(=O)CN(CCS)C1=O (cyclo(DGR[N(2-mercaptoethyl)Gly]TKSIPPI[N(2-mercaptoethyl)Gly]FP)): inactive
CC[C@H](C)[C@@H]1NC(=O)[C@@H]2CCCN2C(=O)[C@@H]2CCCN2C(=O)[C@H]([C@@H](C)CC)NC(=O)[C@H](CO)NC(=O)[C@H](CCCCN)NC(=O)[C@H]([C@@H](C)O)NC(=O)[C@@H]2CSSC[C@H](NC1=O)C(=O)N[C@@H](Cc1ccccc1)C(=O)N1CCC[C@H]1C(=O)N[C@@H](CC(=O)O)C(=O)NCC(=O)N[C@@H](CCCNC(=N)N)C(=O)N2: 1.1 ×10¹⁰ /M
CC[C@H](C)[C@@H]1NC(=O)[C@@H]2CCCN2C(=O)[C@@H]2CCCN2C(=O)[C@H]([C@@H](C)CC)NC(=O)[C@H](CO)NC(=O)[C@H](CCCCN)NC(=O)[C@H]([C@@H](C)O)NC(=O)[C@H](CS)NC(=O)[C@H](CCCNC(=N)N)NC(=O)CNC(=O)[C@H](CC(=O)O)NC(=O)[C@@H]2CCCN2C(=O)[C@H](Cc2ccccc2)NC(=O)[C@H](CS)NC1=O: 9.9 ×10⁹ /M
CC[C@H](C)[C@@H]1NC(=O)[C@@H]2CCCN2C(=O)[C@@H]2CCCN2C(=O)[C@H]([C@@H](C)CC)NC(=O)[C@H](CO)NC(=O)CN(CCCCN)C(=O)[C@H]([C@@H](C)O)NC(=O)CN(CCS)C(=O)[C@H](CCCNC(=N)N)NC(=O)CNC(=O)[C@H](CC(=O)O)NC(=O)[C@@H]2CCCN2C(=O)[C@H](Cc2ccccc2)NC(=O)CN(CCS)C1=O (cyclo(DGR[N(2-mercaptoethyl)Gly]T[Nlys]SIPPI[N(2-mercaptoethyl)Gly]FP)): inactive

* * *

Species: Bos taurus
Experiment: Inhibition of bovine chymotrypsin
Observable: Ka (×10⁵ /M)
Answer with a number only, understood to be in ×10⁵ /M.

CC[C@H](C)[C@@H]1NC(=O)[C@@H]2CCCN2C(=O)[C@@H]2CCCN2C(=O)[C@H]([C@@H](C)CC)NC(=O)[C@H](CO)NC(=O)CN(Cc2ccccc2)C(=O)[C@H]([C@@H](C)O)NC(=O)[C@@H](C(C)(C)S)NC(=O)[C@H](CCCNC(=N)N)NC(=O)CNC(=O)[C@H](CC(=O)O)NC(=O)[C@@H]2CCCN2C(=O)[C@H](Cc2ccccc2)NC(=O)[C@@H](C(C)(C)S)NC1=O: 3.11

Now turn to the next compound.
Asked: Quick one: Ka for CC[C@H](C)[C@@H]1NC(=O)[C@@H]2CCCN2C(=O)[C@@H]2CCCN2C(=O)[C@H]([C@@H](C)CC)NC(=O)[C@H](CO)NC(=O)CN(Cc2ccccc2)C(=O)[C@H]([C@@H](C)O)NC(=O)[C@@H](C(C)(C)S)NC(=O)[C@H](CCCNC(=N)N)NC(=O)CNC(=O)[C@H](CC(=O)O)NC(=O)[C@@H]2CCCN2C(=O)[C@H](Cc2ccccc2)NC(=O)[C@H](CS)NC1=O ?
Given back: 1.15
